# protocol: growth suppression of yeast trafficking mutant, preliminary HTS, modulators of trafficking downstream of Golgi apparatus project, 1536-format plate, OD 615 nm (AID 637); note: test concentration not given here
# cond: yeast transport mutant growth, absorbance 615 nm, 18 h; hits give high values
Field: inhibition. Provide a value for each of the molecules that follow.
Field: numeric (%). Do not append units.

Endpoint output: inhibition of Cc1cncn1CCc1nc2c3ccccc3nc(=S)n2[nH]1 . Value?
-4.13

Fill in the blank: the reported inhibition of CCOC(=O)c1c(NC(=O)OC)sc2c1CCC2 is ____.
-4.75

Fill blank: measured inhibition of the molecule C(=C\c1ccccc1)/CN1CCN(C(c2ccccc2)c2ccccc2)CC1 is ____.
-3

Fill in the blank: the reported inhibition of CCCC(=O)Nc1ccc(NC(=O)c2cccs2)cn1 is ____.
-2.86

Entry CC(=O)N1CCc2cc(S(=O)(=O)CCC(=O)N3CCN(C(=O)c4ccco4)CC3)ccc21 : reported inhibition = ?
2.95

Please look up its inhibition: CC(C)(C)NC(=O)C(c1ccco1)N(C(=O)Cn1nnc(-c2ccc(F)cc2)n1)c1ccccc1 (centres undefined)
0

What does the record list as inhibition for COC(=O)/C=c1\sc2ncnn2c1=O ?
4.92

What value of inhibition has been reported for the following molecule? Cc1ccccc1-c1nc(CS(=O)(=O)CC(=O)N(C)C2CCCCC2)c(C)o1
-5.08

Name the reported inhibition value associated with the molecule Cc1ccccc1OCc1nnc(SCC(=O)NCc2ccccc2)n1C
-3.02

Quick one: inhibition for COc1ccc(-c2nnn(CC(=O)c3ccc4c(c3)OCCO4)n2)cc1OC ?
0

What does the record list as inhibition for O=S(=O)(NCC1CCCO1)c1ccc2c(c1)OCCO2 (centres undefined) ?
-5.48

Need inhibition, item Cc1ccc(-n2nnnc2SCC(=O)N2CCc3ccccc3C2)cc1
0.48

I have this molecule here, CCn1c(SCC(=O)Nc2ccccc2N2CCCCC2)nc2c1c(=O)n(C)c(=O)n2C , and I need its recorded inhibition.
3.09

Recorded inhibition of c1cc2c(cc1Cn1cnnn1)OCO2 , please.
4.26

Given CN(C)Cc1c(O)ccc2oc(Cc3ccccc3)cc12 , state its recorded inhibition.
-2.42

# query: inhibition of entry Cc1c(CNCc2cccs2)c(C(=O)O)c(C)n1Cc1ccccc1
0.18

What does the record list as inhibition for Cc1ccc(S(=O)(=O)N2CCN(c3nc(C)nc4sc(C)c(C)c34)CC2)cc1 ?
-0.73

Using the record for COC(=O)c1cc2ccsc2n1CC(=O)N(C)c1ccccc1 , report its inhibition.
-1.83

Recorded inhibition of O=C(Cc1ccsc1-c1ccccc1)NO , please.
4.29

What inhibition value was documented for this molecule, Cc1cc(C)c2c(n1)nn1c(NCCCN3CCOCC3)cc(C)nc21 ?
2.38

Which inhibition reading was recorded for the molecule O=C1c2ccccc2-c2nc3ncnn3c(-c3ccccc3)c21 ?
-3.45

Report inhibition for Cc1c(C(=O)Nc2ccncc2)oc2c1C(=O)CC(C)(C)C2 please.
-1.43

Quick one: inhibition for CCCC(=O)Nc1nnc(CC(=O)N2CCCC2)s1 ?
-5.27

Quick one: inhibition of COc1ccc(Nc2nc(-c3sc(N)nc3C)cs2)cc1 ?
0.73

Fill in the blank: the reported inhibition of Cc1nnc(NC(=O)CCC(=O)N2CCC(C)CC2)s1 is ____.
1.64

Name the reported inhibition value associated with the molecule COc1ccc(Cn2c(=O)[nH]c3cc(C(=O)NCCCN4CCCC4)ccc3c2=O)cc1
4.33

Tell me the measured inhibition of O=c1c2ccccc2nc(SCc2cn3ccsc3n2)n1-c1ccc(F)cc1 , please.
1.43

Return reported inhibition; argument: Cc1ccc(NC(=O)CSC2=C(C#N)C(c3ccc4c(c3)OCO4)CC(=O)N2)cc1C (centres undefined)
-2.55

Query: inhibition; subject: CCOc1ccc(/C=N/n2cnnc2)cc1
-3.93

Name the reported inhibition value associated with the molecule Nc1nc2ccccc2n1/N=C/c1ccc(Br)cc1
8.57

Which inhibition is reported for this molecule? COc1cc(C2Nc3cccc4cccc(c34)N2)cc(OC)c1O
-4.76

Suppose we examine the molecule CCOC(=O)C1CCCN(C(=O)c2cc3c(-c4cccc(OC)c4)nn(C)c3s2)C1 (centres undefined) ; what inhibition value has been reported?
1.64

Name the reported inhibition value associated with the molecule Cn1cccc1Cc1nnc(SCC(N)=O)n1-c1ccc(F)cc1
1.33

# input molecule: CCc1ccc2[nH]c(=O)c(C(c3nnnn3CC3CCCO3)N3CCN4CCCC4C3)cc2c1 (centres undefined) ; wanted: its inhibition
-2.55
